SYSTEM NAME: PIP5Kβ (Homo sapiens, UniProt O14986)
Sequence (O14986 whole entry): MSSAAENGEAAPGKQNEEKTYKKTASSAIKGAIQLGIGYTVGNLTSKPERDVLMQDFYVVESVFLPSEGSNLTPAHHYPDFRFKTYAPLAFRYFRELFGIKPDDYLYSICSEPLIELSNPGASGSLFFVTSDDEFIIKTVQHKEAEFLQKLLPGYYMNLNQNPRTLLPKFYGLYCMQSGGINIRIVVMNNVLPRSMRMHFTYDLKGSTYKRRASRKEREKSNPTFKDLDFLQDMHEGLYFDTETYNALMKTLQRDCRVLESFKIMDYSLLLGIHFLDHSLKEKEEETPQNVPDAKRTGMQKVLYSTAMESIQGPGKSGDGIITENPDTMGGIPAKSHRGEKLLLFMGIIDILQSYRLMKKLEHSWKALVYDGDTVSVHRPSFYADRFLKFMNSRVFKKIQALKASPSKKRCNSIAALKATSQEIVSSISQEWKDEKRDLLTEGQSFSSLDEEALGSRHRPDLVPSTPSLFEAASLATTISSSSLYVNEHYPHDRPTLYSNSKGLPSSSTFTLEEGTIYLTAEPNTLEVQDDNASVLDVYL
pIC50: −log10 of the molar value.
MEASUREMENT KIND: pIC50

Lab note: CC[C@H](Nc1ncnc2[nH]cnc12)c1nc2cccc(F)c2c(=O)n1-c1ccccc1 [Compound I] gave pIC50 of < 6.00

###

SYSTEM NAME: PI3Kα (Mus musculus, UniProt P42337)
Sequence (P42337 whole entry, canonical isoform): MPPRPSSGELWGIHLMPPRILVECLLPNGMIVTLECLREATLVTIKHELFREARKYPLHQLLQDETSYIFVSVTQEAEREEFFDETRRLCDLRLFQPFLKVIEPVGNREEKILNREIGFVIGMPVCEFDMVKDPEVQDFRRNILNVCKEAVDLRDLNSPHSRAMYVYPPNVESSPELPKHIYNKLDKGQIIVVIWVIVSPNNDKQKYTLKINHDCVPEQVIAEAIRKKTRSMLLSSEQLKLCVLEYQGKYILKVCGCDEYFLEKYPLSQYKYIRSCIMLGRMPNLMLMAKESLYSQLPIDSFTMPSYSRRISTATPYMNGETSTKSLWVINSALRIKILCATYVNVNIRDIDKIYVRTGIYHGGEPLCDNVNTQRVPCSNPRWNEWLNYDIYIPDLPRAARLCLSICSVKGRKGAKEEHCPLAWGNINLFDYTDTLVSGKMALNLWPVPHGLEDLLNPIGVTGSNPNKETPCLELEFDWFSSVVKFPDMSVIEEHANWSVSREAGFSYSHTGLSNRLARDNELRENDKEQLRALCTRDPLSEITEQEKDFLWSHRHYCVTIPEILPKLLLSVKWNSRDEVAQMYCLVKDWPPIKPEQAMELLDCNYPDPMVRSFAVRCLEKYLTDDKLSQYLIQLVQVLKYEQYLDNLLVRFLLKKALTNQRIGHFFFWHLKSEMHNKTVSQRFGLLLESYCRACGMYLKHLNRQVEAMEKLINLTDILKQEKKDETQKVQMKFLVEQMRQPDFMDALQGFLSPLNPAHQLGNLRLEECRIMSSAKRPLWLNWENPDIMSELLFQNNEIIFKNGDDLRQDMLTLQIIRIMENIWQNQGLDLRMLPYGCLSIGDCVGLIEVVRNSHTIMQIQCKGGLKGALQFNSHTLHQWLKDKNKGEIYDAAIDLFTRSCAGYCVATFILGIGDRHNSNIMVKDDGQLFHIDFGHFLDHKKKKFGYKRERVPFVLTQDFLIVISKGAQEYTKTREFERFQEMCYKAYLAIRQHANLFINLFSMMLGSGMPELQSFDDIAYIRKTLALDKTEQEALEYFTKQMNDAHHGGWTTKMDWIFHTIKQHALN
Sequence (P26450 whole entry partner, canonical isoform): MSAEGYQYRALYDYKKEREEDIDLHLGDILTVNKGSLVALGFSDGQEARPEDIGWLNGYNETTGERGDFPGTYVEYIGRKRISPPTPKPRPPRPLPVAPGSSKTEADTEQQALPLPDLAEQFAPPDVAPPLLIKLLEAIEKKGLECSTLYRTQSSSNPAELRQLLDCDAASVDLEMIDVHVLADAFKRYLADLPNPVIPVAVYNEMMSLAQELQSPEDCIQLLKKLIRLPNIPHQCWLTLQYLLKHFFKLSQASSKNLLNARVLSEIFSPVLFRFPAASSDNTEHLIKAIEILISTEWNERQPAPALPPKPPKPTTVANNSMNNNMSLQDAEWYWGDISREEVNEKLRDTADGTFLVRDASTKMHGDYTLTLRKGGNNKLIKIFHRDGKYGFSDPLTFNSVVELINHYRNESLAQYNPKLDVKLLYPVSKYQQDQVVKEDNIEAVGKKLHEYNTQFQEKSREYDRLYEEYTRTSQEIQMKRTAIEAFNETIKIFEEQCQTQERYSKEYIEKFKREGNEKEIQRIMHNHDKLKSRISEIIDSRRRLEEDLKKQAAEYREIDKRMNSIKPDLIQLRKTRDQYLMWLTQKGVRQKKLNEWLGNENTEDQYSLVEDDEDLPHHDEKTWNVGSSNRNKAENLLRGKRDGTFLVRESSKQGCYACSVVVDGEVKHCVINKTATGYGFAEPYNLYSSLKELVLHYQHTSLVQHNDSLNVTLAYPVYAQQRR
PROTOCOL DETAILS: Isoform specific cell-based assay: PDGF induced pAKT in Swiss-3T3 fibroblasts
PARTICULARS: Fibroblast Cell Line, n = 12
Experimental: Swiss-3T3 fibroblasts and RAW-264 were seeded on a 96-well tissue culture plate and allowed to reach at least 90% confluency. […] Akt phosphorylation and total AKT was detected by ELISA. […] Results are expressed as relative [^3H] thymidine incorporation induced by IgM crosslinking.
pEC50: −log10 of the molar value.
MEASUREMENT KIND: pEC50

Field pEC50 (system: PI3Kα (Mus musculus, UniProt P42337)) for entry CC[C@H](Nc1ncnc2[nH]cnc12)c1nc2cccc(F)c2c(=O)n1-c1ccccc1 [Compound I] = < 4.70

###

SYSTEM NAME: mTOR (Homo sapiens)
MEASUREMENT KIND: IC50

Field IC50 (system: mTOR (Homo sapiens)) for entry `CC[C@H](Nc1ncnc2[nH]cnc12)c1nc2cccc(F)c2c(=O)n1-c1ccccc1` = > 1000 nM
